- System name: CYP1A2 (Homo sapiens, UniProt P05177)
- Sequence (P05177 whole entry): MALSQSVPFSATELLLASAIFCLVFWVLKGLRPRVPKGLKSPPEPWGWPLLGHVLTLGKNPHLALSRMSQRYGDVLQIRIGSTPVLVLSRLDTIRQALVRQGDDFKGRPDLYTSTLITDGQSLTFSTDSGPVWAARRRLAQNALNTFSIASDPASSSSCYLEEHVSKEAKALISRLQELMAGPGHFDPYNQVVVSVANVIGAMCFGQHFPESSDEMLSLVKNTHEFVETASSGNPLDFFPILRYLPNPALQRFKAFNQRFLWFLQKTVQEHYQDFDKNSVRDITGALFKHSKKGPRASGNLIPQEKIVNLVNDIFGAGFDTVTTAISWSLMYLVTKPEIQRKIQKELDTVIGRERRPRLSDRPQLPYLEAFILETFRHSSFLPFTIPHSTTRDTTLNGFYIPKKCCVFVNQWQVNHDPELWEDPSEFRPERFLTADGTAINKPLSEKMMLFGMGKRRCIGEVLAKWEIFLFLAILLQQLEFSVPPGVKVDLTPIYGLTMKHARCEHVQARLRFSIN
- Test method notes: in vitro
- Protocol conditions: microsomes
Where a name gives a salt, the structure may show the parent alone.

Molecule: Cc1ccc(C(=O)Nc2ccc(S(=O)(=O)O)c3cc(S(=O)(=O)O)cc(S(=O)(=O)O)c23)cc1NC(=O)c1cccc(NC(=O)Nc2cccc(C(=O)Nc3cc(C(=O)Nc4ccc(S(=O)(=O)O)c5cc(S(=O)(=O)O)cc(S(=O)(=O)O)c45)ccc3C)c2)c1 [suramin, Suramin sodium salt]
inhibition at 10 min, 100 µM (%): 89

====

- Test method notes: Cynomolgus monkey plasma pharmacokinetics
- Protocol conditions: male, iv, 4.37 mg/kg, AUC0-last, monkey P102, 4.37 mg/kg i.v. bolus
Where a name gives a salt, the structure may show the parent alone.
Value kind: AUC(0-t) (µg·h/mL)

Compound: Cc1ccc(C(=O)Nc2ccc(S(=O)(=O)O)c3cc(S(=O)(=O)O)cc(S(=O)(=O)O)c23)cc1NC(=O)c1cccc(NC(=O)Nc2cccc(C(=O)Nc3cc(C(=O)Nc4ccc(S(=O)(=O)O)c5cc(S(=O)(=O)O)cc(S(=O)(=O)O)c45)ccc3C)c2)c1 [suramin, Suramin sodium salt]
Experimental result: 1810

====

- Test method notes: Cynomolgus monkey plasma pharmacokinetics
- Protocol conditions: male, iv, 4.37 mg/kg, AUC0-last, monkey P103, 4.37 mg/kg i.v. bolus
Where a name gives a salt, the structure may show the parent alone.

Molecule: Cc1ccc(C(=O)Nc2ccc(S(=O)(=O)O)c3cc(S(=O)(=O)O)cc(S(=O)(=O)O)c23)cc1NC(=O)c1cccc(NC(=O)Nc2cccc(C(=O)Nc3cc(C(=O)Nc4ccc(S(=O)(=O)O)c5cc(S(=O)(=O)O)cc(S(=O)(=O)O)c45)ccc3C)c2)c1 [suramin, Suramin sodium salt]
AUC(0-t) / µg·h/mL: 1930

====

- System name: CYP2C9 (Homo sapiens, UniProt P11712)
- Sequence (P11712 whole entry): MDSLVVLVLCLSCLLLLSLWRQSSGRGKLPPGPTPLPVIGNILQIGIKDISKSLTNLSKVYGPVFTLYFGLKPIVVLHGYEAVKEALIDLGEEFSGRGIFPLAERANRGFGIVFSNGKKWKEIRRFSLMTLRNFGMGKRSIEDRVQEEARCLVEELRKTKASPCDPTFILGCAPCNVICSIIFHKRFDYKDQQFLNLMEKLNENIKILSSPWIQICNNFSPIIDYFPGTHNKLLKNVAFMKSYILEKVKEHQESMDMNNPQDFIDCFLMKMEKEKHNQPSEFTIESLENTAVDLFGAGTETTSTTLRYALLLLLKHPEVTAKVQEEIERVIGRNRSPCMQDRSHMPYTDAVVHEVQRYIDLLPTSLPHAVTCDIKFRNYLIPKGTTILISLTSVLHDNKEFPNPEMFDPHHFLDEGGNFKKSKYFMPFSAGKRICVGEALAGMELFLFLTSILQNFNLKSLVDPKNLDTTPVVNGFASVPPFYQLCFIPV
- Test method notes: in vitro
- Protocol conditions: microsomes
Counter-ions that a name gives are not always drawn.

Compound: Cc1ccc(C(=O)Nc2ccc(S(=O)(=O)O)c3cc(S(=O)(=O)O)cc(S(=O)(=O)O)c23)cc1NC(=O)c1cccc(NC(=O)Nc2cccc(C(=O)Nc3cc(C(=O)Nc4ccc(S(=O)(=O)O)c5cc(S(=O)(=O)O)cc(S(=O)(=O)O)c45)ccc3C)c2)c1 [suramin, Suramin sodium salt]
Unit: %
inhibition at 10 min, 10 µM: 0

====

- System name: CYP2D6 (Homo sapiens, UniProt P10635)
- Sequence (P10635 whole entry): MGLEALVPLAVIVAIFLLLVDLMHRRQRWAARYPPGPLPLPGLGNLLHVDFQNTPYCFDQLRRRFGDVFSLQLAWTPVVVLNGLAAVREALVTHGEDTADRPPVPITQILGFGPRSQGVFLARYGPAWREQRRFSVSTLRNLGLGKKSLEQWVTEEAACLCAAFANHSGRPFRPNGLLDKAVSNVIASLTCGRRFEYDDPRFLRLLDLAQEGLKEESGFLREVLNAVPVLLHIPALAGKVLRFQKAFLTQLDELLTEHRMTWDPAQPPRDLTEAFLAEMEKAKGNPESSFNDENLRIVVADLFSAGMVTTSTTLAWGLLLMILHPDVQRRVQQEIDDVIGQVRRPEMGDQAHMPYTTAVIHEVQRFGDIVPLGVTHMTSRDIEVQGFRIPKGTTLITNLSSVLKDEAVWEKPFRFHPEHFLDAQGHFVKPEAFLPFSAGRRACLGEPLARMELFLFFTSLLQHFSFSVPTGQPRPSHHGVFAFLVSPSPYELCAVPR
- Test method notes: in vitro
- Protocol conditions: human microsomes, probe marker substrate cocktail, O-demethylation (CYP2D6)
Where a name gives a salt, the structure may show the parent alone.

Molecule: Cc1ccc(C(=O)Nc2ccc(S(=O)(=O)O)c3cc(S(=O)(=O)O)cc(S(=O)(=O)O)c23)cc1NC(=O)c1cccc(NC(=O)Nc2cccc(C(=O)Nc3cc(C(=O)Nc4ccc(S(=O)(=O)O)c5cc(S(=O)(=O)O)cc(S(=O)(=O)O)c45)ccc3C)c2)c1 [suramin, Suramin sodium salt]
inhibition at 10 min, 100 µM: 49%

====

- System name: CYP2C9 (Homo sapiens)
- Test method notes: in vitro
- Protocol conditions: microsomes
Structures can show the parent of a compound that is named as a salt.
Value kind: inhibition at 10 min, 30 µM (%)

Compound: Cc1ccc(C(=O)Nc2ccc(S(=O)(=O)O)c3cc(S(=O)(=O)O)cc(S(=O)(=O)O)c23)cc1NC(=O)c1cccc(NC(=O)Nc2cccc(C(=O)Nc3cc(C(=O)Nc4ccc(S(=O)(=O)O)c5cc(S(=O)(=O)O)cc(S(=O)(=O)O)c45)ccc3C)c2)c1 [suramin, Suramin sodium salt]
Unit: %
Experimental result: 8

====

- Test method notes: Cynomolgus monkey plasma pharmacokinetics
- Protocol conditions: male, iv, 4.37 mg/kg, AUC0-inf, monkey P101, 4.37 mg/kg i.v. bolus
Counter-ions that a name gives are not always drawn.
Value kind: AUC(0-inf) (µg·h/mL)

Molecule: Cc1ccc(C(=O)Nc2ccc(S(=O)(=O)O)c3cc(S(=O)(=O)O)cc(S(=O)(=O)O)c23)cc1NC(=O)c1cccc(NC(=O)Nc2cccc(C(=O)Nc3cc(C(=O)Nc4ccc(S(=O)(=O)O)c5cc(S(=O)(=O)O)cc(S(=O)(=O)O)c45)ccc3C)c2)c1 [suramin, Suramin sodium salt]
Value kind: AUC(0-inf)
Experimental result: 1960
